- target.or.test.system: BCL-XL (Homo sapiens, UniProt Q07817)
- Construct: endogenous in cells; host or cells: MOLT-4
- Sequence (Q07817 whole entry): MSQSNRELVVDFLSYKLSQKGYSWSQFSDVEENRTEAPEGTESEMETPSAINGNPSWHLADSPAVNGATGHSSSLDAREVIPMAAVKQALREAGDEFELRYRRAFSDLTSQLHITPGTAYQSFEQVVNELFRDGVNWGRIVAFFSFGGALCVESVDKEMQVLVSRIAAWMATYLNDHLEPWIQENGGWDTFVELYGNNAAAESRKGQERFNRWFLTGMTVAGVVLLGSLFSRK
- experiment.summary: BCL-XL degradation assay, western blot in MOLT-4 cells, 16 h
- Type: cell-based
- cond: western blot, MOLT-4 cells, 16 h; read-out: Bcl-xL WB in MOLT-4 degradation 16 h: Mean external-Abs DC50
// reported DC50 per item

C#Cc1ccc([C@H](C)NC(=O)[C@@H]2C[C@@H](O)CN2C(=O)[C@@H](NC(=O)CCCCCC(=O)N2CCN(CC[C@H](CSc3ccccc3)Nc3ccc(S(=O)(=O)NC(=O)c4ccc(N5CCN(CC6=C(c7ccc(Cl)cc7)CCC(C)(C)C6)CC5)cc4)cc3S(=O)(=O)C(F)(F)F)CC2)C(C)(C)C)cc1; 10 to 100 nM
Cc1ncsc1-c1ccc([C@H](C)NC(=O)[C@@H]2C[C@@H](O)CN2C(=O)[C@H](c2cc(N3CCN(c4ccc(S(=O)(=O)NC(=O)c5nc(N6CCc7cccc(C(=O)Nc8nc9ccccc9s8)c7C6)ccc5-c5cnn(CC6CCCCC6)c5C)cc4)CC3)no2)C(C)C)cc1; 100 to 500 nM

Given the molecule Cc1ncsc1-c1ccc([C@H](C)NC(=O)[C@@H]2C[C@@H](O)CN2C(=O)[C@@H](NC(=O)CCCC(=O)N(C)CCN(C)c2cc3c(c(C(=O)Nc4nc5ccccc5s4)c2)CN(c2ccc(-c4cnn(CC5CCCCC5)c4C)c(C(=O)O)n2)CC3)C(C)(C)C)cc1 , write its reported DC50.
> 1000 nM

Given the molecule Cc1ncsc1-c1ccc([C@H](C)NC(=O)[C@@H]2C[C@@H](O)CN2C(=O)[C@H](NC(=O)CCCCCCCS(=O)(=O)NC(=O)c2nc(N3CCc4cccc(C(=O)Nc5nc6ccccc6s5)c4C3)ccc2-c2cnn(C)c2C)C(C)(C)C)cc1 , write its reported DC50.
100 to 500 nM
